system: Caco-2 cell; test: Caco-2 monolayer cell transmission rate (in vitro intestinal absorption model); format: in vitro ADME, human; settings: human, Caco-2, 4 h
# gbp-prodrug/gbp Transmission Fold annotations

{"compound": "CCOC(=O)CC1(CNC(=O)C(N)CCSC)CCCCC1 (centres unmarked)", "tgt": "Caco-2 cell", "unit-label": "Fold", "gbp-prodrug/gbp Transmission Fold": 8.2}
{"compound": "CC(C)(C)OC(=O)NC(CO)C(=O)NCC1(CC(=O)O)CCCCC1 (centres unmarked)", "tgt": "Caco-2 cell", "unit-label": "Fold", "gbp-prodrug/gbp Transmission Fold": 18.8}
{"compound": "CCOC(=O)CC1(CNC(=O)C(N)CCc2ccccc2)CCCCC1 (centres unmarked) [Embodiment 31]", "tgt": "Caco-2 cell", "unit-label": "Fold", "gbp-prodrug/gbp Transmission Fold": 11.2}
{"compound": "CCOC(=O)CC1(CNC(=O)C(N)CC(C)C)CCCCC1 (centres unmarked)", "tgt": "Caco-2 cell", "unit-label": "Fold", "gbp-prodrug/gbp Transmission Fold": 11.2}
{"compound": "CCOC(=O)CC1(CNC(=O)C2CCC(CN)CC2)CCCCC1 (centres unmarked)", "tgt": "Caco-2 cell", "unit-label": "Fold", "gbp-prodrug/gbp Transmission Fold": 10.1}
{"compound": "CCOC(=O)CC1(CNC(=O)C2CCNCC2)CCCCC1", "tgt": "Caco-2 cell", "unit-label": "Fold", "gbp-prodrug/gbp Transmission Fold": 0.9}
{"compound": "CCOC(=O)CC1(CNC(=O)C2(N)CCCCC2)CCCCC1", "tgt": "Caco-2 cell", "unit-label": "Fold", "gbp-prodrug/gbp Transmission Fold": 9.5}
{"compound": "CCOC(=O)CC1(CNC(=O)C(C)N)CCCCC1 (centres unmarked) [Embodiment 11]", "tgt": "Caco-2 cell", "unit-label": "Fold", "gbp-prodrug/gbp Transmission Fold": 16.0}
{"compound": "CCOC(=O)CC1(CNC(=O)C(N)CO)CCCCC1 (centres unmarked)", "tgt": "Caco-2 cell", "unit-label": "Fold", "gbp-prodrug/gbp Transmission Fold": 10.0}
{"compound": "CCOC(=O)CC1(CNC(=O)c2ccc(O)c(OC)c2)CCCCC1", "tgt": "Caco-2 cell", "unit-label": "Fold", "gbp-prodrug/gbp Transmission Fold": 12.4}
{"compound": "CCOC(=O)CC1(CNC(=O)C(C)N)CCCCC1 (centres unmarked) [Embodiment 28]", "tgt": "Caco-2 cell", "unit-label": "Fold", "gbp-prodrug/gbp Transmission Fold": 7.4}
{"compound": "CCOC(=O)CC1(CNC(=O)c2cccnc2)CCCCC1", "tgt": "Caco-2 cell", "unit-label": "Fold", "gbp-prodrug/gbp Transmission Fold": 8.5}
{"compound": "CCOC(=O)CC1(CNC(=O)C(N)CCc2ccccc2)CCCCC1 (centres unmarked) [Embodiment 32]", "tgt": "Caco-2 cell", "unit-label": "Fold", "gbp-prodrug/gbp Transmission Fold": 1.6}
{"compound": "CCOC(=O)CC1(CNC(=O)C(N)C(C)C)CCCCC1 (centres unmarked)", "tgt": "Caco-2 cell", "unit-label": "Fold", "gbp-prodrug/gbp Transmission Fold": 7.9}
{"compound": "CCOC(=O)CC1(CNC(=O)c2ccccc2)CCCCC1", "tgt": "Caco-2 cell", "unit-label": "Fold", "gbp-prodrug/gbp Transmission Fold": 19.5}
{"compound": "CCOC(=O)CC1(CNC(=O)C2CSCN2)CCCCC1 (centres unmarked)", "tgt": "Caco-2 cell", "unit-label": "Fold", "gbp-prodrug/gbp Transmission Fold": 4.1}
{"compound": "CCOC(=O)CC1(CNC(=O)C2CCC(=O)N2)CCCCC1 (centres unmarked)", "tgt": "Caco-2 cell", "unit-label": "Fold", "gbp-prodrug/gbp Transmission Fold": 5.2}
{"compound": "CCOC(=O)CC1(CNC(=O)CC2(CN)CCCCC2)CCCCC1", "tgt": "Caco-2 cell", "unit-label": "Fold", "gbp-prodrug/gbp Transmission Fold": 9.3}
{"compound": "CCOC(=O)CC1(CNC(=O)c2ccccc2CN)CCCCC1", "tgt": "Caco-2 cell", "unit-label": "Fold", "gbp-prodrug/gbp Transmission Fold": 1.9}
{"compound": "CCOC(=O)CC1(CNC(=O)C(N)c2ccccc2)CCCCC1 (centres unmarked)", "tgt": "Caco-2 cell", "unit-label": "Fold", "gbp-prodrug/gbp Transmission Fold": 10.8}
{"compound": "CCOC(=O)CC1(CNC(=O)C(N)C(C)CC)CCCCC1 (centres unmarked)", "tgt": "Caco-2 cell", "unit-label": "Fold", "gbp-prodrug/gbp Transmission Fold": 8.6}
{"compound": "CCOC(=O)CC1(CNC(=O)C(N)Cc2ccccc2)CCCCC1 (centres unmarked)", "tgt": "Caco-2 cell", "unit-label": "Fold", "gbp-prodrug/gbp Transmission Fold": 9.4}
{"compound": "CCOC(=O)CC1(CNC(=O)C(N)c2ccc(O)cc2)CCCCC1 (centres unmarked)", "tgt": "Caco-2 cell", "unit-label": "Fold", "gbp-prodrug/gbp Transmission Fold": 9.4}

Reference source: patent US7037939B2
